This section presents molecules with their documented inhibition at 1 µM values.
SYSTEM NAME: panel of 255 wild-type kinases (Homo sapiens)
ASSAY NOTES: Kinase panel profiling at 1 µmol/L (MSA or IMAP), percentage inhibition
Type: biochemical
EXPERIMENTAL SETUP: MET; 1 µmol/L single concentration
Report the figure in % without appending any unit label.

Worked set:
INSERT INTO assay_data (structure, endpoint_unit, numeric_result) VALUES
  ('CO[C@]1(C(=O)N[C@@H](C)c2ccc(-n3cc(F)cn3)nc2)CC[C@H](c2nc(C)cc(Nc3cc(C)[nH]n3)n2)CC1', '%', 5.27),
  ('COc1cc2ncnc(Nc3ccc(F)c(Cl)c3)c2cc1NC(=O)/C=C/CN1CCCCC1', '%', 24),
  ('Cc1cc(Nc2ncnc3ccc(NC4=NC(C)(C)CO4)cc23)ccc1Oc1ccn2ncnc2c1', '%', 5.33),
  ('CCc1nc(C(N)=O)c(Nc2ccc(N3CCC(N4CCN(C)CC4)CC3)c(OC)c2)nc1NC1CCOCC1', '%', 90),
  ('CCN1CCN(c2ccc(Nc3cc(N(C)C(=O)Nc4c(Cl)c(OC)cc(OC)c4Cl)ncn3)cc2)CC1', '%', 0.848);

Q: Data request, read-out inhibition at 1 µM, for CCN1C(=O)N(c2c(F)c(OC)cc(OC)c2F)Cc2cnc3[nH]c(CN4CCOCC4)cc3c21
A: -2.49

Q: Next record, please: Cn1cc(-c2cc3c(N4CCN(c5ncc([C@@](C)(N)c6ccc(F)cc6)cn5)CC4)ncnn3c2)cn1
A: 16

###

Test system: 134 cancer cell lines
ASSAY NOTES: Cell viability assay (ATPlite, 72 hours), IC50 on cancer cell line panel
EXPERIMENTAL SETUP: Homo sapiens, SK-N-FI, read-out: IC50 in cell proliferation assay, cell line SK-N-FI
EXPERIMENTAL ENDPOINT: IC50

Would you please look over these solved cases?
INSERT INTO measurements (structure, experimental_endpoint, result) VALUES
  ('Cc1cc(Nc2ncc(Cl)c(Nc3ccccc3S(=O)(=O)C(C)C)n2)c(OC(C)C)cc1C1CCNCC1', 'IC50', '0.537 µM'),
  ('CCN1CCN(c2ccc(Nc3cc(N(C)C(=O)Nc4c(Cl)c(OC)cc(OC)c4Cl)ncn3)cc2)CC1', 'IC50', '> 3.16 µM'),
  ('C[C@H](Nc1ncnc2nc[nH]c12)c1cc2cccc(Cl)c2c(=O)n1-c1ccccc1', 'IC50', '> 31.6 µM');

Now examine the next entry.
Q: What measured IC50 goes with O=C(Nc1cnn2ccc(N3CCC[C@@H]3c3cc(F)ccc3F)nc12)N1CC[C@H](O)C1 ?
A: > 31.6 µM

###

SYSTEM NAME: panel of 255 wild-type kinases (Homo sapiens)
ASSAY NOTES: Kinase panel profiling at 1 µmol/L (MSA or IMAP), percentage inhibition
Type: biochemical
EXPERIMENTAL SETUP: CHK1 kinase assay; 1 µmol/L single concentration; read-out: %-inhibition CHK1
Reported values of inhibition at 1 µM for individual entries
Write it as a number; the unit % goes unstated.

Look over these answered cases.
INSERT INTO measurements (molecule, experimental_endpoint, numeric_result) VALUES
  ('COC(=O)N[C@@H](C)CNc1nccc(-c2cn(C(C)C)nc2-c2cc(Cl)cc(NS(C)(=O)=O)c2F)n1 [encorafenib]', 'inhibition at 1 µM', 14),
  ('CO[C@]1(C(=O)N[C@@H](C)c2ccc(-n3cc(F)cn3)nc2)CC[C@H](c2nc(C)cc(Nc3cc(C)[nH]n3)n2)CC1 [pralsetinib]', 'inhibition at 1 µM', 11),
  ('CCN1C(=O)N(c2c(F)c(OC)cc(OC)c2F)Cc2cnc3[nH]c(CN4CCOCC4)cc3c21 [pemigatinib]', 'inhibition at 1 µM', 12),
  ('FC(F)(F)c1ccc(CNc2ccc(Cc3c[nH]c4ncc(Cl)cc34)cn2)cn1 [pexidartinib]', 'inhibition at 1 µM', 5.6),
  ('Cn1cnc2c(F)c(Nc3ccc(Br)cc3Cl)c(C(=O)NOCCO)cc21 [selumetinib]', 'inhibition at 1 µM', 2.73);

Q: Can you look up the measured inhibition at 1 µM of Cn1cc(-c2cc3c(N4CCN(c5ncc([C@@](C)(N)c6ccc(F)cc6)cn5)CC4)ncnn3c2)cn1 [avapritinib] for me?
A: 40

Q: Now consider Cc1nc(NC(=O)N2CCC[C@H]2C(N)=O)sc1-c1ccnc(C(C)(C)C(F)(F)F)c1 [alpelisib] .
A: 11

###

Tested on: 134 cancer cell lines
ASSAY NOTES: Cell viability assay (ATPlite, 72 hours), IC50 on cancer cell line panel
EXPERIMENTAL SETUP: Homo sapiens, A 172, read-out: IC50 in cell proliferation assay, cell line A-172
# IC50 per entry
Your answer should be a plain number; it is taken to be in µM.

Q: Consider the compound COC(=O)N[C@@H](C)CNc1nccc(-c2cn(C(C)C)nc2-c2cc(Cl)cc(NS(C)(=O)=O)c2F)n1 and give its measured IC50.
A: 1.79

Q: Can you handle Cc1cc(Nc2ncnc3ccc(NC4=NC(C)(C)CO4)cc23)ccc1Oc1ccn2ncnc2c1 next?
A: 17.4

###

SYSTEM NAME: UniProt Q08881
Sequence (Q08881 whole entry): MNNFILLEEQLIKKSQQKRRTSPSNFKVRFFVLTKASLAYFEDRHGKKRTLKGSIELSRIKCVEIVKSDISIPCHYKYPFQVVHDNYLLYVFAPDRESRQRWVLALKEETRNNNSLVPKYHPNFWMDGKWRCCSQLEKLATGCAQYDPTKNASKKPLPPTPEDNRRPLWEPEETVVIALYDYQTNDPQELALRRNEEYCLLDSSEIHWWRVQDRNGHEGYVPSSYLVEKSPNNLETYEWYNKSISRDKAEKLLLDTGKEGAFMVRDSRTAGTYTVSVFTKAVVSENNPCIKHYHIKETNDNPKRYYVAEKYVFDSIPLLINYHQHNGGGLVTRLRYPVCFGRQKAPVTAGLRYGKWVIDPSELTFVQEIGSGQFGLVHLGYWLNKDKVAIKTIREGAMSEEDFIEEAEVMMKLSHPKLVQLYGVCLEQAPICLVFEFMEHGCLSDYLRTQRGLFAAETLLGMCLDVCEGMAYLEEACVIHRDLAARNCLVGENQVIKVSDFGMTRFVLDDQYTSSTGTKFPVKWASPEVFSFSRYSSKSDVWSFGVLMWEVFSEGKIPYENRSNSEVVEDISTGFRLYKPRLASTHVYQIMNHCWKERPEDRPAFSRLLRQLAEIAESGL
ASSAY NOTES: Kinase panel profiling at 1 µmol/L (MSA or IMAP), percentage inhibition
Type: biochemical
EXPERIMENTAL SETUP: kinase ITK; 1 µmol/L single concentration; read-out: %-inhibition at 1 µmol/L, ITK
Below: a set of entries, each annotated with reported inhibition at 1 µM.

Consider the reported inhibition at 1 µM for these molecules:
INSERT INTO measurements (structure, system_name, result) VALUES
  ('Cn1cnc2c(F)c(Nc3ccc(Br)cc3F)c(C(=O)NOCCO)cc21', 'UniProt Q08881', '1.61%'),
  ('CO[C@]1(C(=O)N[C@@H](C)c2ccc(-n3cc(F)cn3)nc2)CC[C@H](c2nc(C)cc(Nc3cc(C)[nH]n3)n2)CC1', 'UniProt Q08881', '59%'),
  ('O=C(Nc1cnn2ccc(N3CCC[C@@H]3c3cc(F)ccc3F)nc12)N1CC[C@H](O)C1', 'UniProt Q08881', '13%');

Now look at this one.
Q: Data request, read-out inhibition at 1 µM, for Cc1cc(Nc2ncnc3ccc(NC4=NC(C)(C)CO4)cc23)ccc1Oc1ccn2ncnc2c1
A: 1.31%

###

Entries and their inhibition at 1 µM
SYSTEM NAME: panel of 255 wild-type kinases (Homo sapiens)
ASSAY NOTES: Kinase panel profiling at 1 µmol/L (MSA or IMAP), percentage inhibition
Format: biochemical
EXPERIMENTAL SETUP: MRCKα; 1 µmol/L single concentration; read-out: %-inhibition, MRCKα
The reply should be a number in %, with the unit left off.

Please review the following examples before continuing.
INSERT INTO measurements (structure, system_name, numeric_result) VALUES
  ('C[C@H]1Oc2cc(cnc2N)-c2c(nn(C)c2C#N)CN(C)C(=O)c2ccc(F)cc21', 'panel of 255 wild-type kinases (Homo sapiens)', -6),
  ('CCc1nc(C(N)=O)c(Nc2ccc(N3CCC(N4CCN(C)CC4)CC3)c(OC)c2)nc1NC1CCOCC1', 'panel of 255 wild-type kinases (Homo sapiens)', 12),
  ('CN1CCN(c2ccc(C(=O)Nc3n[nH]c4ccc(Cc5cc(F)cc(F)c5)cc34)c(NC3CCOCC3)c2)CC1', 'panel of 255 wild-type kinases (Homo sapiens)', -3.42),
  ('Cn1cc(-c2cc3c(N4CCN(c5ncc([C@@](C)(N)c6ccc(F)cc6)cn5)CC4)ncnn3c2)cn1', 'panel of 255 wild-type kinases (Homo sapiens)', 4),
  ('COc1cc2ncnc(Nc3ccc(F)c(Cl)c3)c2cc1NC(=O)/C=C/CN1CCCCC1', 'panel of 255 wild-type kinases (Homo sapiens)', 4.59);

Q: Reported inhibition at 1 µM, compound CCN1C(=O)N(c2c(F)c(OC)cc(OC)c2F)Cc2cnc3[nH]c(CN4CCOCC4)cc3c21 : ____
A: -3.23

Q: What about FC(F)(F)c1ccc(CNc2ccc(Cc3c[nH]c4ncc(Cl)cc34)cn2)cn1 ?
A: 0.771

Q: Moving on to the next compound: C=CC(=O)N1CCC([C@@H]2CCNc3c(C(N)=O)c(-c4ccc(Oc5ccccc5)cc4)nn32)CC1
A: -0.931

###

SYSTEM NAME: panel of 255 wild-type kinases (Homo sapiens)
Sequence (Q13470 1-666): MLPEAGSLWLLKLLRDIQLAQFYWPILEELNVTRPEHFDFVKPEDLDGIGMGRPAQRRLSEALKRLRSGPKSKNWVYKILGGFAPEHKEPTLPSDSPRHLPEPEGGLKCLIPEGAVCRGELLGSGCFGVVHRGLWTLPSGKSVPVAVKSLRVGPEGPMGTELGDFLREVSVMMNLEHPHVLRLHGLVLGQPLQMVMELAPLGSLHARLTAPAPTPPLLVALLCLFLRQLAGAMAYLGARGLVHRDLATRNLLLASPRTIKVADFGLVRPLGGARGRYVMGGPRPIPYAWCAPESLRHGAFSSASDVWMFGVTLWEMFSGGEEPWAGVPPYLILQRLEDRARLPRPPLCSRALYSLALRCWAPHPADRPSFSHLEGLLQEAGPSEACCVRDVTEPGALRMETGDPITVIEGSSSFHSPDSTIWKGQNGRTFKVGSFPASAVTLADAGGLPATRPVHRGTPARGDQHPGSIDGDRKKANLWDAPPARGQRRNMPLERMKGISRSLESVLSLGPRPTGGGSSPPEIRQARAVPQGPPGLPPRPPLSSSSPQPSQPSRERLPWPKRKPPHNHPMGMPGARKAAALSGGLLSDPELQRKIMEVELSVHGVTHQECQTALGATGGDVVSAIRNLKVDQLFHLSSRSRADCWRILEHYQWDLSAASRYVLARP
ASSAY NOTES: Kinase panel profiling at 1 µmol/L (MSA or IMAP), percentage inhibition
Format: biochemical
EXPERIMENTAL SETUP: kinase TNK1; 1 µmol/L single concentration; read-out: %-inhibition at 1 µmol/L, TNK1
Label Satisfied when inhibition at 1 µM is at or above 20%; anything below gets Not satisfied.

The following molecules have reported results that may help.
INSERT INTO assay_data (molecule, class_assignment) VALUES
  ('C[C@H](Nc1ncnc2nc[nH]c12)c1cc2cccc(Cl)c2c(=O)n1-c1ccccc1 [duvelisib]', 'Not satisfied'),
  ('CCN1CCN(c2ccc(Nc3cc(N(C)C(=O)Nc4c(Cl)c(OC)cc(OC)c4Cl)ncn3)cc2)CC1 [infigratinib]', 'Satisfied'),
  ('FC(F)(F)c1ccc(CNc2ccc(Cc3c[nH]c4ncc(Cl)cc34)cn2)cn1 [pexidartinib]', 'Satisfied'),
  ('COc1ccc(CN2C3CC2CN(c2ccc(-c4cc(OCC(C)(C)O)cn5ncc(C#N)c45)cn2)C3)cn1 [selpercatinib]', 'Satisfied');

Q: Quick check, inhibition at 1 µM >= 20%? Cn1cc(-c2cc3c(N4CCN(c5ncc([C@@](C)(N)c6ccc(F)cc6)cn5)CC4)ncnn3c2)cn1 [avapritinib]
A: Not satisfied

Q: Consider next the molecule Cc1cc(Nc2ncnc3ccc(NC4=NC(C)(C)CO4)cc23)ccc1Oc1ccn2ncnc2c1 [tucatinib] in the same way.
A: Not satisfied

Q: Try this molecule next: C=CC(=O)N1CCC([C@@H]2CCNc3c(C(N)=O)c(-c4ccc(Oc5ccccc5)cc4)nn32)CC1 [zanubrutinib]
A: Not satisfied
